Data origin, for the record: PubChem BioAssay (NCI)

Test system: SW-620 colon
Assay: NCI tumour cell line growth inhibition, 48 h
measure: log10 of TGI (log10 of the value in µM)
Friendly reminder: values = log10 of TGI, unit µM.

Reference set, count: 2
# compound, tested on, measure, obs value
data = [
    ("CN(C)CCCNc1ccc2ncn3c4ccccc4c(=O)c1c23", "SW-620 colon", "log10 of TGI", 1.42),
    ("CC1=C(CCC(C)N(C)Cc2ccc(OCCCN3CCCC3)cc2)C(C)(C)CCC1 (stereo not given)", "SW-620 colon", "log10 of TGI", 1.03),
]

// batch mode: one log10 of TGI value per listed entry
1. O=C(/C(=C/c1ccccc1)CN1CCCCC1)c1ccccc1
2. C/C(=N\Nc1ccc2ccccc2n1)c1ccccn1
3. COc1cccc(NC(=O)c2sc3nc4c(cc3c2N)CN(Cc2ccccc2)CC4)c1

## Result
0.18
0.75
1.86

// batch mode: one log10 of TGI value per listed entry
1. O=c1cc(-c2ccccc2)[nH]c2cc(O)ccc12
2. COc1ccc(C(OCC2OC(n3ccc(NC(=O)c4ccccc4)nc3=O)C(O)C2O)(c2ccccc2)c2ccccc2)cc1 (stereo not given)
3. CCOC(=O)c1sc2c(c1OC(=O)c1cccs1)c(=O)n(-c1ccccc1)c(=S)n2-c1ccccc1
4. O=C1OC(CCCl)(c2ccccc2)CC1CN1CCOCC1 (stereo not given)
5. COc1cccc(/C=C2/Sc3scc(-c4ccccc4)[n+]3C2=O)c1O
6. CCOc1ccc2nc(NC(=O)c3c/c(=N\NC(=O)C[N+](C)(C)C)c4ccc(O)cc4o3)sc2c1
7. CCCCCCCCCCCCCCCCCC(=O)OCC(COC1OC(COP(=O)(O)O)C(O)C(O)C1O)OC(=O)CCCCCCCCCCCCCCCCC (stereo not given)

## Result
1: 1.50; 2: 0.76; 3: 1.82; 4: 1.59; 5: 1.64; 6: 0.72; 7: 1.25

// batch mode: one log10 of TGI value per listed entry
1. O=C(N=S(NC(=O)c1ccccc1)C(Cl)(Cl)Cl)c1ccccc1 (stereo not given)
2. O=[N+]([O-])/C=C1\COCc2cc3c(cc21)OCO3
3. COc1ccc(C2=C(Cl)c3cc(OC)c(OC)cc3C2Cl)cc1OC (stereo not given)
4. CCN1CCC(CCOC)(CN2c3ccccc3Sc3ccc(Cl)cc32)C1 (stereo not given)

## Result
[1.20, 1.68, 1.54, 0.51]

----------
Tested on: NCI-H23 lung
Assay: NCI tumour cell line growth inhibition, 48 h
Assign GI50 to each entry below.

# chemical smiles, GI50
data = [
    ("CC(C)(C)c1n[nH]c(=S)n(/N=C/c2ccc(F)c(Oc3ccccc3)c2)c1=O", "37.7 µM"),
    ("Cc1ccc(C2=NOC3=c4ccccc4=CSC3=C2c2ccc([N+](=O)[O-])cc2)cc1", "17.8 µM"),
]

// batch mode: one GI50 value per listed entry
1. COc1ccc(-c2n[nH]nc2-c2cc(OC)c3c(c2OC)OCO3)cc1
2. CC(C)(C)c1ccc(OCCCCCCN2CCNCC2)cc1
3. O=C1c2c(c3c4ccccc4[nH]c3c3ccc4ccccc4c23)C(=O)N1CCN1CCCCC1
4. C[C@@H]1CC[C@H]2C(COCCOCC3=C(C(F)(F)F)O[C@@H]4O[C@@]5(C)CC[C@H]6[C@H](C)CC[C@@H]3[C@@]46OO5)=C(C(F)(F)F)O[C@@H]3O[C@@]4(C)CC[C@@H]1[C@]32OO4
5. Cc1ccc(-c2cc(-c3ccc(C)cc3)nc(NCCNc3ccnc4cc(Cl)ccc34)n2)cc1
6. c1ccc2c(c1)c(NCCCCN1CCCCC1)cc1c3ccccc3c(NCCCCN3CCCCC3)cc21

## Result
1.25 µM
7.59 µM
0.741 µM
0.535 µM
1.91 µM
20.5 µM

----------
System: UACC-257 melanoma
Test: NCI tumour cell line growth inhibition, 48 h
measure: TGI (µM)
Give bare numbers, in µM.

// batch mode: one TGI value per listed entry
1. CCCCCCNC(=O)c1cnc(Cl)cn1
2. CC(=O)NC1=C(OS(=O)(=O)c2ccc(C)cc2)CN(C)C1=O
3. CCCCNCC(=O)O[C@]1(CC)C(=O)OCc2c1cc1n(c2=O)Cc2cc3ccccc3nc2-1
4. Cc1sc(Cc2ccccc2)nc1-c1ccc(N)cc1
5. CC(C)(C)c1ccc(OCCCCCCN2CCNCC2)cc1
6. CCC1CN2CCc3cc(OC)c(OC)cc3C2CC1CC1c2cc(OC)c(OC)cc2CCN1C(=O)C1CCCN1C(=O)OCc1ccccc1 (stereo not given)

## Result
1: 37.4; 2: 11.8; 3: 8.19; 4: 84.5; 5: 22.9; 6: 30.8

----------
System: U251 CNS
Assay: NCI tumour cell line growth inhibition, 48 h
measure: TGI

Reference set, count: 5
# compound, TGI
data = [
    ("N#Cc1c(N/N=C/c2c(Cl)cccc2Cl)nc(N)nc1N1CCOCC1", "> 100 µM"),
    ("CC(=O)OCC(OC(C)=O)C(OC(C)=O)C(C=NN(C(C)=O)S(=O)(=O)c1ccc(/C=C2\\NC(=O)NC2=O)cc1)OC(C)=O (centres undefined)", "> 100 µM"),
    ("CC1CC[C@@H](C(C)C)[C@H](Oc2nnc(C3OC(CO)C(O)C3O)o2)C1 (some centres undefined)", "> 100 µM"),
    ("COC(=O)C1C(OC(=O)c2ccccc2)CC2CCC1N2C(N)=O (centres undefined)", "> 100 µM"),
    ("N#CC(c1ccccc1)c1nc2ccc(=N)cc-2n(O)c1C(C#N)c1ccccc1 (centres undefined)", "> 100 µM"),
]

// batch mode: one TGI value per listed entry
1. CCN1CCC(CCOC)(CN2c3ccccc3Sc3ccc(Cl)cc32)C1 (centres undefined)
2. COc1ccc(NS(=O)CCCc2ccccc2)cc1 (centres undefined)

## Result
["3.64 µM", "> 100 µM"]

// batch mode: one TGI value per listed entry
1. COc1ccc(NC(=O)CC(=O)N2N=C(C)C(N=Nc3ccc(S(=O)(=O)c4ccc(N=NC5C(=O)N(C(=O)CC(=O)Nc6ccc(OC)cc6)N=C5C)cc4)cc3)C2=O)cc1 (centres undefined)
2. Cc1cc(C)c(C2=NOC(c3ccccc3)(c3cc(=O)n(-c4ccccc4)s3)O2)c(C)c1 (centres undefined)

## Result
1. > 100 µM
2. 66.4 µM

----------
Assign TGI to each entry below.
Tested on: HOP-62 NSCLC
Assay: NCI tumour cell line growth inhibition, 48 h

Reference set, count: 3
# compound, TGI
data = [
    ("NC(=O)CCCC(NCc1c2ccccc2nc2ccccc12)C(=O)O (stereo unspecified)", "> 100 µM"),
    ("Cc1ccc(-c2cc(-c3ccc(C)cc3)nc(NCCNc3ccnc4cc(Cl)ccc34)n2)cc1", "3.8 µM"),
    ("N=C(N)c1ccc(N2CCCN(c3ccc(C(=N)N)cc3)CC2)cc1", "> 100 µM"),
]

// batch mode: one TGI value per listed entry
1. CN1CCN(Cc2ccc(NC(=O)c3cncc(C#Cc4cnc(N)c5ccncc45)c3)cc2C(F)(F)F)CC1
2. O=c1[nH]c2ccccc2nc1-c1c[nH]c2ccccc12
3. C#CCOCC12C=CC(O1)C1C(=O)N(C)C(=O)C12 (stereo unspecified)

## Result
1: > 16.6 µM; 2: > 100 µM; 3: > 100 µM

----------
Assign TGI to each entry below.
Test system: SNB-19 CNS
Test: NCI tumour cell line growth inhibition, 48 h

# molecule, measure, obs value
rows = [
    ("COc1ccc2cc(-c3ccoc(=O)c3-c3cc(OC)c(OC)c(OC)c3)ccc2c1", "TGI", "> 100 µM"),
    ("COc1cc(/C=C2/CCS(=O)(=O)c3ccc(C)cc3C2=O)cc(OC)c1OC", "TGI", "> 34.8 µM"),
    ("COc1ccc(-c2c(N)n(-c3nc4ccccc4s3)c(=O)c3cc([N+](=O)[O-])ccc23)cc1", "TGI", "> 100 µM"),
    ("CC12NN=NC1C(=O)NC2=O (configuration not stated)", "TGI", "> 100 µM"),
    ("CCOC(=O)CSc1nc(-c2ccccc2)c(C#N)c(=O)[nH]1", "TGI", "> 100 µM"),
    ("O=C(N=S(NC(=O)c1ccccc1)C(Cl)(Cl)Cl)c1ccccc1 (configuration not stated)", "TGI", "> 100 µM"),
]

// batch mode: one TGI value per listed entry
1. Cc1c(/C=N/NC(=S)Nc2ccccc2Cl)c(=O)n(-c2ccccc2)n1C
2. COc1ccc(NC(=O)C/C(C)=N\N=C(N)N)c([N+](=O)[O-])c1
3. O=C(NN1C(=O)CSC12CCCCC2)c1[nH]c2ccc(F)cc2c1-c1ccccc1
4. COc1cc2c(cc1OC(=O)CC(C)O)C1C(OC2=O)C(OC(C)=O)C=C2CCN(C)[C@H]21 (some centres not stated)
5. C=CCOC1OC(CO[Si](C)(C)C(C)(C)C)C(OCc2ccccc2)C(OCc2ccccc2)C1OCc1ccccc1 (configuration not stated)
6. O=NC1C(Cl)C2CC1C1C(Br)C(Br)CC21 (configuration not stated)

## Result
1: > 100 µM; 2: > 100 µM; 3: 44.2 µM; 4: 57.5 µM; 5: 60.3 µM; 6: > 100 µM
